method notes: Equilibrium binding to DMPG small unilamellar vesicles (fluorescence anisotropy titration)
test context: PBS buffer at PH 7.4 and 37° C.
Define the label as yes when KDMPG overall association constant is strictly less than 600 M⁻¹ and as no in all remaining cases.

{"molecule": "CCCc1c2c(nc3ccc(OC)cc13)-c1cc3c(c(=O)n1C2)COC(=O)C3(O)CC (stereo not shown)", "answer label": "yes"}
{"molecule": "CC[C@@]1(O)C(=O)OCc2c1cc1n(c2=O)Cc2cc3ccccc3nc2-1 [CPT, (20S)-Camptothecin, reference compound]", "answer label": "yes"}
{"molecule": "CCC1(O)C(=O)OCc2c1cc1n(c2=O)Cc2c-1nc1ccc(OC)cc1c2C (stereo not shown)", "answer label": "yes"}
{"molecule": "CC[C@@]1(O)C(=O)OCc2c1cc1n(c2=O)Cc2c-1nc1ccccc1c2CC[Si](C)(C)C", "answer label": "no"}
{"molecule": "CC[C@@]1(O)C(=O)OCc2c1cc1n(c2=O)Cc2c-1nc1ccc(O)cc1c2CC[Si](C)(C)C", "answer label": "no"}
{"molecule": "CCC1(O)C(=O)OCc2c1cc1n(c2=O)Cc2c-1nc1ccc(O)cc1c2C (stereo not shown) [7-methyl-10-hydroxycamptothecin]", "answer label": "yes"}
{"molecule": "CC[C@@]1(O)C(=O)OCc2c1cc1n(c2=O)Cc2c-1nc1ccc(N)cc1c2CC[Si](C)(C)C", "answer label": "no"}
{"molecule": "CC[C@@]1(O)C(=O)OCc2c1cc1n(c2=O)Cc2c-1nc1ccc(O)cc1c2[Si](C)(C)C(C)(C)C", "answer label": "no"}
{"molecule": "CCc1c2c(nc3ccc(OC)cc13)-c1cc3c(c(=O)n1C2)COC(=O)C3(O)CC (stereo not shown)", "answer label": "yes"}
{"molecule": "CCc1c2c(nc3ccc(O)cc13)-c1cc3c(c(=O)n1C2)COC(=O)[C@]3(O)CC [SN-38, 10-hydroxy-7-ethylcamptothecin, reference compound]", "answer label": "yes"}
{"molecule": "CCCc1c2c(nc3ccc(O)cc13)-c1cc3c(c(=O)n1C2)COC(=O)C3(O)CC (stereo not shown) [7-propyl-10-hydroxycamptothecin]", "answer label": "yes"}
{"molecule": "CCc1c2c(nc3ccccc13)-c1cc3c(c(=O)n1C2)COC(=O)[C@]3(O)CC [7-ethyl-20(S)-camptothecin]", "answer label": "yes"}
{"molecule": "CCCCc1c2c(nc3ccc(O)cc13)-c1cc3c(c(=O)n1C2)COC(=O)C3(O)CC (stereo not shown) [7-butyl-10-hydroxycamptothecin]", "answer label": "no"}
{"molecule": "CC[C@@]1(O)C(=O)OCc2c1cc1n(c2=O)Cc2c-1nc1ccccc1c2C [7-methyl-20(S)-camptothecin]", "answer label": "yes"}
{"molecule": "CCC1(O)C(=O)OCc2c1cc1n(c2=O)Cc2c-1nc1ccc(N)cc1c2[Si](C)(C)C (stereo in doubt)", "answer label": "yes"}

* * *

method notes: Kinetics of lactone ring opening in PBS buffer (HPLC)
Format: physicochemical
test context: buffer, pH 7.4
measurement type: half-life (min)

{"compound": "CC[C@@]1(O)C(=O)OCc2c1cc1n(c2=O)Cc2c-1nc1ccccc1c2[Si](C)(C)C [Example 1, (20S)-7-trimethylsilylcamptothecin]", "recorded value": 34.6}
{"compound": "CC[C@@]1(O)C(=O)OCc2c1cc1n(c2=O)Cc2c-1nc1ccc(N)cc1c2CC[Si](C)(C)C [DB-173]", "recorded value": 45.3}
{"compound": "CC[C@@]1(O)C(=O)OCc2c1cc1n(c2=O)Cc2c-1nc1ccc(O)cc1c2CC[Si](C)(C)C [DB-174]", "recorded value": 29.7}
{"compound": "CCC1(O)C(=O)OCc2c1cc1n(c2=O)Cc2c-1nc1ccc(N)cc1c2[Si](C)(C)C (stereo in doubt) [Example 8]", "recorded value": 31.3}
{"compound": "CCC1(O)C(=O)OCc2c1cc1n(c2=O)Cc2c-1nc1ccccc1c2[Si](C)(C)C(C)(C)C (stereo in doubt) [Example 2]", "recorded value": 27.9}

* * *

The following compounds are listed with their measured log10 IC50 values.
Test system: DC-3F (hamster lung) cells
method notes: Cytotoxicity assay, DC-3F cells (sulforhodamine B protein content)
Type: cell-based
test context: Mesocricetus auratus, DC3F; DC-3F cells, sulforhodamine B; read-out: Inhibition of cancer cell growth IC50, DC-3F
measurement type: log10 IC50 (log10 of the value in nM)

{"compound": "CCC1(O)C(=O)OCc2c1cc1n(c2=O)Cc2c-1nc1ccccc1c2[Si](c1ccccc1)(c1ccccc1)C(C)(C)C (stereo in doubt)", "log10 IC50": 2.82}
{"compound": "CCC1(O)C(=O)OCc2c1cc1n(c2=O)Cc2c-1nc1cc(F)c(N)cc1c2[Si](C)(C)C (stereo in doubt)", "log10 IC50": -0.54}
{"compound": "CCC1(O)C(=O)OCc2c1cc1n(c2=O)Cc2c-1nc1cc(N)ccc1c2[Si](C)(C)C (stereo in doubt)", "log10 IC50": 0.81}
{"compound": "CC[C@@]1(O)C(=O)OCc2c1cc1n(c2=O)Cc2c-1nc1ccccc1c2[Si](C)(C)CCCC#N", "log10 IC50": 0.43}
{"compound": "CC[C@@]1(O)C(=O)OCc2c1cc1n(c2=O)Cc2c-1nc1ccccc1c2[Si](C(C)C)(C(C)C)C(C)C [Example 12, 20S-7-triisopropylsilylcamptothecin]", "log10 IC50": 3.02}
{"compound": "CC[C@@]1(O)C(=O)OCc2c1cc1n(c2=O)Cc2c-1nc1ccccc1c2[Si](CC)(CC)CC [Example 13, (20S)-7-Triethylsilylcamptothecin]", "log10 IC50": 1.76}
{"compound": "CCC1(O)C(=O)OCc2c1cc1n(c2=O)Cc2c-1nc1ccccc1c2[Si](C)(C)C(C)(C)C (stereo in doubt)", "log10 IC50": 0.46}

* * *

System: DC-3F (hamster lung) cells
method notes: Cytotoxicity assay, DC-3F cells (sulforhodamine B protein content)
Type: cell-based
test context: Mesocricetus auratus, DC3F; DC-3F cells, sulforhodamine B; read-out: Inhibition of cancer cell growth IC50, DC-3F
The following molecules are listed with their measured IC50 values.

{"molecule": "CC[C@@]1(O)C(=O)OCc2c1cc1n(c2=O)Cc2c-1nc1ccccc1c2[Si](C)(C)C [Example 1, (20S)-7-trimethylsilylcamptothecin]", "target system": "DC-3F (hamster lung) cells", "IC50 [nM]": 4.2}
{"molecule": "CCC1(O)C(=O)OCc2c1cc1n(c2=O)Cc2c-1nc1ccc(OC(C)=O)cc1c2[Si](C)(C)C (stereo in doubt)", "target system": "DC-3F (hamster lung) cells", "IC50 [nM]": 6.7}
{"molecule": "CCC1(O)C(=O)OCc2c1cc1n(c2=O)Cc2c-1nc1ccc(N)cc1c2[Si](C)(C)C (stereo in doubt)", "target system": "DC-3F (hamster lung) cells", "IC50 [nM]": 0.72}

* * *

Tested on: HL-60 (human promyelocytic leukemic) cells
method notes: Cytotoxicity assay, HL-60 cells (XTT-microculture tetrazolium assay)
Type: cell-based
test context: Homo sapiens, HL-60, 72 h, read-out: Inhibition of cancer cell growth IC50, HL-60

{"compound": "CCC1(O)C(=O)OCc2c1cc1n(c2=O)Cc2c-1nc1ccc(OC(=O)N3CCC(N4CCCCC4)CC3)cc1c2[Si](C)(C)C (stereo in doubt) [Example 6, (20S) 7-trimethylsilyl-irinotecan]", "IC50 (µM)": 0.066}

* * *

method notes: in vitro
test context: human, blood

{"compound": "CCC1(O)C(=O)OCc2c1cc1n(c2=O)Cc2c-1nc1ccccc1c2[Si](C)(C)C(C)(C)C (stereo in doubt) [Example 2]", "half-life": "71.9 min"}
{"compound": "CCC1(O)C(=O)OCc2c1cc1n(c2=O)Cc2c-1nc1ccc(N)cc1c2[Si](C)(C)C (stereo in doubt) [Example 8]", "half-life": "37.6 min"}
{"compound": "CC[C@@]1(O)C(=O)OCc2c1cc1n(c2=O)Cc2c-1nc1ccccc1c2[Si](C)(C)C [Example 1, (20S)-7-trimethylsilylcamptothecin]", "half-life": "54.6 min"}
{"compound": "CC[C@@]1(O)C(=O)OCc2c1cc1n(c2=O)Cc2c-1nc1ccc(O)cc1c2CC[Si](C)(C)C [DB-174]", "half-life": "40.3 min"}

* * *

method notes: Equilibrium binding to DMPC small unilamellar vesicles (fluorescence anisotropy titration)
test context: relative to camptothecin
measurement type: K value for DMPC, fold greater than camptothecin

{"input smiles": "CC[C@@]1(O)C(=O)OCc2c1cc1n(c2=O)Cc2c-1nc1ccc(O)cc1c2[Si](C)(C)C(C)(C)C", "recorded value": "27 fold"}
{"input smiles": "CC[C@@]1(O)C(=O)OCc2c1cc1n(c2=O)Cc2c-1nc1ccc(O)cc1c2CC[Si](C)(C)C", "recorded value": "~90 fold"}
{"input smiles": "CC[C@@]1(O)C(=O)OCc2c1cc1n(c2=O)Cc2c-1nc1ccc(N)cc1c2CC[Si](C)(C)C", "recorded value": "~58 fold"}
{"input smiles": "CC[C@@]1(O)C(=O)OCc2c1cc1n(c2=O)Cc2c-1nc1ccccc1c2CC[Si](C)(C)C", "recorded value": "~100 fold"}

Values were extracted from patent US6743917B2.
